Here we gather IC50 data for UniProt P31153 reported by several publications.

Ask | # IC50 lookup, item C=CCNc1nc(=O)n(-c2cccnc2C)c2cc(C(F)(F)F)cc(OC)c12
Reply | < 50 nM

Ask | Please answer likewise for O=c1c(-c2ccc(OC(F)F)cc2)cn2ccc(Cl)cc2c1-c1ccc(OC(F)F)cc1
Reply | < 50 nM

Ask | Please answer likewise for C#CCNc1nc(=O)n(-c2cccnc2C)c2cc(Br)cc(OC)c12
Reply | < 50 nM

Ask | Please answer likewise for Cn1cc2cc(-n3c(=O)c(-c4ccc(Cl)cc4)c(NCC(F)(F)F)c4cn[nH]c43)ccc2n1
Reply | 18.2 nM

Ask | Please answer likewise for O=c1c(-c2ccc(OC(F)F)cc2)cn2ccc(OCC(F)(F)F)nc2c1-c1ccc(OC(F)F)cc1
Reply | < 50 nM

Ask | Please answer likewise for Cc1ccc(-n2c(=O)c(-c3ccc4c(c3)OCCO4)c(N)c3ccc(C(F)(F)F)nc32)cc1
Reply | 16 nM

Ask | Please answer likewise for C#CC1(O)CN(c2nc(=O)n(-c3ccccc3Cl)c3cc(Cl)ccc23)C1
Reply | 100 to 500 nM

Ask | Please answer likewise for C#CCNc1nc(=O)n(-c2cccnc2)c2cc(C(F)(F)F)cc(OCF)c12
Reply | < 50 nM

Ask | Please answer likewise for Cn1cc2cc(-c3cn4ccc(NCC(F)(F)F)nc4c(-c4ccc5c(c4)OC(F)(F)O5)c3=O)ccc2n1
Reply | < 50 nM

Ask | Please answer likewise for C#CCNc1nc(=O)n(-c2cccnc2)c2cc(Cl)ccc12
Reply | < 50 nM

Ask | Please answer likewise for N#CCn1cc2cc(-c3cn4ccc(NCC(F)(F)F)nc4c(-c4ccc(OC(F)F)cc4)c3=O)ccc2n1
Reply | < 50 nM

Ask | Please answer likewise for C#CCNc1nc(=O)n(-c2cccnc2C)c2cc(C(F)(F)F)ccc12
Reply | < 50 nM

Ask | Please answer likewise for CCOc1c(-c2ccc(Cl)cc2)c(=O)n(-c2ccc3nn(C)nc3c2)c2nn(C)cc12
Reply | 17.9 nM
